Sourced from patent US20130065910A1

Assay overview: Solubility of meclizine hydrochloride in Solutol HS15 and HP-β-CD solutions
Format: physicochemical
Measurement conditions: aqueous with cosolvent or surfactant or cyclodextrin, thermodynamic from solid; 15% (w/v) Solutol HS15 aqueous solution, room temperature (22° C.)
Structures can show the parent of a compound that is named as a salt.
Test readout: solubility (mg/mL)

compound="Cc1cccc(CN2CCN(C(c3ccccc3)c3ccc(Cl)cc3)CC2)c1 (stereo not shown) [meclizine hydrochloride]" test_readout=solubility u=mg/mL measurement=22.8

---

Assay overview: Solubility of meclizine hydrochloride in Solutol HS15 and HP-β-CD solutions
Format: physicochemical
Measurement conditions: aqueous with cosolvent or surfactant or cyclodextrin, thermodynamic from solid; 0.5% (w/v) HP-β-CD aqueous solution, room temperature (22° C.)
Method: The ability of Solutol® HS15 and HP-β-CD to enhance the aqueous solubility of meclizine hydrochloride is determined in this example. Aqueous solutions containing 0.1, 0.5, 1, 2.5, 5, 10, 15, 20, and 25% (w/v) (w/v) of Solutol® HS15 or HP-β-CD solubilizers were prepared. […] The filtrate samples were diluted and detected by HPLC and the concentration of meclizine hydrochloride in the samples was calculated with the calibration curve made from standard solutions of meclizine hydrochloride.
Structures can show the parent of a compound that is named as a salt.
Test readout: solubility (µg/mL)

compound="Cc1cccc(CN2CCN(C(c3ccccc3)c3ccc(Cl)cc3)CC2)c1 (stereo not shown) [meclizine hydrochloride]" test_readout=solubility u=µg/mL measurement=6100

---

Assay overview: Solubility of meclizine hydrochloride in Solutol HS15 and HP-β-CD solutions
Format: physicochemical
Measurement conditions: aqueous with cosolvent or surfactant or cyclodextrin, thermodynamic from solid; 5% (w/v) HP-β-CD aqueous solution, room temperature (22° C.)
Structures can show the parent of a compound that is named as a salt.
Test readout: solubility

molecule="Cc1cccc(CN2CCN(C(c3ccccc3)c3ccc(Cl)cc3)CC2)c1 (stereo not shown) [meclizine hydrochloride]" measurement="14.3 mg/mL"

---

Assay overview: Solubility of meclizine hydrochloride in Solutol HS15 and HP-β-CD solutions
Format: physicochemical
Measurement conditions: aqueous with cosolvent or surfactant or cyclodextrin, thermodynamic from solid; 1% (w/v) HP-β-CD aqueous solution, room temperature (22° C.)
Structures can show the parent of a compound that is named as a salt.
Test readout: solubility (µg/mL)

compound="Cc1cccc(CN2CCN(C(c3ccccc3)c3ccc(Cl)cc3)CC2)c1 (stereo not shown) [meclizine hydrochloride]" measurement=7100

---

Assay overview: Solubility of meclizine hydrochloride in Solutol HS15 and HP-β-CD solutions
Type: physicochemical
Measurement conditions: aqueous with cosolvent or surfactant or cyclodextrin, thermodynamic from solid; 15% (w/v) HP-β-CD aqueous solution, room temperature (22° C.)
Where a name gives a salt, the structure may show the parent alone.
Test readout: solubility (mg/mL)

compound="Cc1cccc(CN2CCN(C(c3ccccc3)c3ccc(Cl)cc3)CC2)c1 (stereo not shown) [meclizine hydrochloride]" test_readout=solubility u=mg/mL measurement=30.5

---

Assay overview: Solubility of meclizine hydrochloride in Solutol HS15 and HP-β-CD solutions
Assay type: physicochemical
Measurement conditions: aqueous with cosolvent or surfactant or cyclodextrin, thermodynamic from solid; 10% (w/v) HP-β-CD aqueous solution, room temperature (22° C.)
Where a name gives a salt, the structure may show the parent alone.
Test readout: solubility (mg/mL)

molecule="Cc1cccc(CN2CCN(C(c3ccccc3)c3ccc(Cl)cc3)CC2)c1 (stereo not shown) [meclizine hydrochloride]" u=mg/mL measurement=24.6
